Tested on: Alternaria alternata
Assay: Antimicrobial activity against Alternaria alternata after 24 hrs by serial dilution method
Assay type: functional
measure name: MIC (µg/mL)
# number only, unit µg/mL dropped from output

> print(dat)
                                   compound  observed.value
1  Cc1nc2c(c(=O)[nH]1)c1nnc(C)c(=O)n1n2-c1nnc(-c2ccccc2)c(-c2ccccc2)n1              50

Recorded MIC (compound Cc1nc2c(c(=O)[nH]1)c1nnc(-c3ccccc3)n1n2-c1nnc(-c2ccccc2)c(-c2ccccc2)n1 ): 50

Recorded MIC (compound CSc1nn(-c2nnc(-c3ccccc3)c(-c3ccccc3)n2)c2nc3c(C#N)c(N)nn3c(N)c12 ): 25

Recorded MIC (compound N#Cc1c(N)nn2c(N)c3c(nc12)n(-c1nnc(-c2ccccc2)c(-c2ccccc2)n1)n1c(=O)c2ccccc2nc31 ): 50

Recorded MIC (compound CC(=O)N1CCN(c2ccc(OCC3COC(Cn4ccnc4)(c4ccc(Cl)cc4Cl)O3)cc2)CC1 (stereo unspecified) [KETOCONAZOLE] ): 6.25

###

System: Aspergillus niger
Experiment: Antimicrobial activity against Aspergillus niger at 100 ug/mL after 3 to 4 days by disk diffusion method
Conditions: read-out: IZ
measure name: zone of inhibition at 100 µg/mL (mm)
# number only, unit mm dropped from output

See these solved cases before continuing.
> print(dat)
                      smiles.representation  endpoint.unit  observed.value
1  CSc1nn(-c2nnc(-c3ccccc3)c(-c3ccccc3)n2)c2nc3c(C#N)c(N)nn3c(N)c12             mm              18
2  S=c1nc2c3c(n(-c4nnc(-c5ccccc5)c(-c5ccccc5)n4)nc3[nH]1)N=C(c1ccccc1)N2             mm              11
3  CSc1nn(-c2nnc(-c3ccccc3)c(-c3ccccc3)n2)c2nc(C)c(C#N)c(N)c12             mm               7
4  Cc1nc2c(c(NN)nn2-c2nnc(-c3ccccc3)c(-c3ccccc3)n2)c(=O)[nH]1             mm              11
5  CSc1nn(-c2nnc(-c3ccccc3)c(-c3ccccc3)n2)c2nc(-c3ccccc3)c3c(C)c(C#N)c(N)nc3c12             mm              11
6  N#Cc1c(N)nn2c(N)c3c(nc12)n(-c1nnc(-c2ccccc2)c(-c2ccccc2)n1)n1c(=O)c2ccccc2nc31             mm              19

Value sought: zone of inhibition at 100 µg/mL, system Aspergillus niger, item CSc1nn(-c2nnc(-c3ccccc3)c(-c3ccccc3)n2)c2nc(-c3ccccc3)c(C(C)=O)c(N)c12 . Result: 4

###

Test system: Alternaria alternata
Test: Antimicrobial activity against Alternaria alternata at 100 ug/mL after 3 to 4 days by disk diffusion method
Conditions: read-out: IZ
measure name: zone of inhibition at 100 µg/mL (mm)
# number only, unit mm dropped from output

See these solved cases before continuing.
> print(dat)
                      smiles.representation  endpoint.unit  observed.value
1  CSc1nn(-c2nnc(-c3ccccc3)c(-c3ccccc3)n2)c2nc(-c3ccccc3)c(C(C)=O)c(N)c12             mm               5
2  S=c1nc2c3c(n(-c4nnc(-c5ccccc5)c(-c5ccccc5)n4)nc3[nH]1)N=C(c1ccccc1)N2             mm               5
3  CSc1nn(-c2nnc(-c3ccccc3)c(-c3ccccc3)n2)c2nc(C)[nH]c(=O)c12             mm              10

Consider now this further compound.
Recorded zone of inhibition at 100 µg/mL (compound Nc1nc(=S)[nH]c2nn(-c3nnc(-c4ccccc4)c(-c4ccccc4)n3)c(N)c12 ): 2
